target: B/Victoria neuraminidase (NA); assay type: biochemical, influenza B/Victoria lineage virus; settings: read-out: IC50 Mean ± SD
recorded endpoint: IC50 (nM)
Report only the number, with the unit nM understood.

Tell me the measured IC50 of CCC(CC)[C@H](NC(C)=O)[C@@H]1[C@H](O)[C@@H](C(=O)O)C[C@H]1N=C(N)N [Peramivir, peramivir] , please.
0.35
